EXPERIMENTAL DETAILS: inhibitors of hydroxyurea-induced Chk1 phosphorylation, primary screen, imaging, HeLa, phospho-Chk1 antibody, percent positive cells (AID 1186)
CONDITION SUMMARY: hydroxyurea-induced phospho-Chk1 immunofluorescence imaging, higher = more signal
Param threshold (-0.04) applies to z-score; output rule met when value >= threshold, rule not met when value < threshold.

Field: example entries. Status: answers known.
>>> answer_label("CCCC[C@@H](O)C1=C(C)C[C@H]2C(=O)N(C)C(=O)[C@H]2[C@H]1CO")
"rule not met"
>>> answer_label("O=C(NCc1ccccc1)[C@@H]1c2ccccc2C(=O)N(Cc2ccccc2Cl)[C@H]1c1ccc(CO)cc1")
"rule not met"
>>> answer_label("O=C(NO)[C@]1(Cc2ccccc2)N=C(c2ccc(OCCCO)cc2)O[C@@H]1c1ccccc1")
"rule not met"
>>> answer_label("CC1CC/C=C\\[C@H]2OC34C=CCN(C(C)C)C(=O)[C@H]3N(C(CO)C(C)C)C(=O)[C@@H]4C2C(=O)O1 (stereo not given in full)")
"rule not met"
>>> answer_label("C=CC[C@@H](OC(=O)Nc1ccc(SC)cc1)c1ccc(OCCO)cc1")
"rule not met"
>>> answer_label("COC(=O)C1=CC(CCCO)=CC(C2CC2)N(Cc2cc3c(cc2Br)OCO3)C=C1C(=O)OC (stereo not given)")
"rule not met"
>>> answer_label("COc1ccc([Si](C)(C)[C@@H]2[C@@H](CC(=O)N3CCC[C@H]3CO)O[C@]3(C(=O)N(Cc4ccc(I)cc4)c4ccccc43)[C@H]2C)cc1")
"rule not met"
>>> answer_label("CC(C)C(=C=CC[C@H](O)c1ccc(OCCO)cc1)C[C@H](O)COCc1ccccc1")
"rule met"
>>> answer_label("COc1ccc([Si](C)(C)[C@H]2[C@H](CC(=O)N(CCO)Cc3ccccc3)O[C@@]3(C(=O)N(Cc4ccc(N5CCC5=O)cc4)c4ccccc43)[C@@H]2C)cc1")
"rule not met"
>>> answer_label("C=C[C@H](OC)[C@@H](OC(=O)Nc1ccc(OC)cc1)c1ccc(OC)c(O)c1")
"rule met"

Lookup: Has CC(C)C(CO)N1C(=O)[C@@H]2[C@H]3C(=O)OCC=C[C@H]3OC23C=CCN(Cc2ccccc2)C(=O)[C@@H]13 (stereo not given in full) a recorded z-score greater than or equal to -0.04?
Found: rule not met

Lookup: Has CCOC(=O)C[C@H]1[C@H](OC(=O)c2ccc(C(=O)c3ccccc3)cc2)[C@@H](NC(=O)Cc2ccc(OC)cc2)c2cc(OCCCO)ccc2N1C(=O)Cc1ccc(OC)cc1 a recorded z-score greater than or equal to -0.04?
Found: rule met

Lookup: Has COc1ccc([Si](C)(C)[C@H]2[C@H](CC(=O)N3Cc4ccccc4C[C@H]3CO)O[C@@]3(C(=O)N(Cc4cccc(N5C(=O)COc6ccccc65)c4)c4ccccc43)[C@@H]2C)cc1 a recorded z-score greater than or equal to -0.04?
Found: rule not met

Lookup: Has C=CCN1C(=O)[C@@]2(O[C@@H](CCn3cc(CCO)nn3)[C@H]([Si](C)(C)c3ccc(OC)cc3)[C@H]2C)c2cc(NC(=O)c3ccc(OC)cc3)ccc21 a recorded z-score greater than or equal to -0.04?
Found: rule met
